Measured values drawn from ChEMBL document CHEMBL1156597 for this set.

Exercise: for every item that follows, state its recorded LC50.
System: A549
protocol: Cytotoxicity against human A549 cells after 48 hrs by SRB assay
Type: functional, cell-based
reported.conditions: Homo sapiens, A549, 48 h
Reply numerically in nM, unit not repeated.

Request: So what's the measured LC50 for this one? C/C=C1\NC(=O)[C@H](Cc2ccccc2)NC(=O)[C@@H](C(C)C)NC(=O)[C@@H]([C@H](C)CC)NC(=O)[C@H](NC(=O)[C@H](NC(=O)[C@H](CCCN)NC(=O)[C@H]2CCCN2C(=O)[C@H](NC(=O)[C@@H](NC(=O)[C@@H](NC(=O)[C@@H](Cc2ccccc2)NC(=O)CCCC(C)C)[C@@H](C)O)C(C)C)C(C)C)[C@H](C)CC)[C@H](C)OC(=O)[C@H](C(C)C)NC1=O
Response: 1840

Request: # repeat for C/C=C1\NC(=O)[C@H](Cc2ccccc2)NC(=O)[C@@H](C(C)C)NC(=O)[C@@H]([C@H](C)CC)NC(=O)[C@H](NC(=O)[C@H](NC(=O)[C@H](CCCN)NC(=O)[C@H]2CCCN2C(=O)[C@H](NC(=O)[C@@H](NC(=O)[C@@H](NC(=O)[C@H](NC(=O)CCCCCCC)C(C)C)[C@@H](C)O)C(C)C)C(C)C)[C@H](C)CC)[C@H](C)OC(=O)[C@H](C(C)C)NC1=O
Response: 1200

Request: # repeat for C/C=C1\NC(=O)[C@H](Cc2ccccc2)NC(=O)[C@@H](C(C)C)NC(=O)[C@@H]([C@H](C)CC)NC(=O)[C@H](NC(=O)[C@H](NC(=O)[C@H](CCCN)NC(=O)[C@H]2CCCN2C(=O)[C@H](NC(=O)[C@@H](NC(=O)[C@@H](NC(=O)[C@H](NC(=O)CCCC(C)C)C(C)C)[C@@H](C)O)[C@@H](C)O)C(C)C)[C@H](C)CC)[C@H](C)OC(=O)[C@H](C(C)C)NC1=O
Response: 1820

###

Test system: DU-145
protocol: Cytotoxicity against human DU145 cells after 48 hrs by SRB assay
Assay type: functional, cell-based
reported.conditions: Homo sapiens, DU-145, 48 h; read-out: LC50 (the source's name)
Exercise: for every item that follows, state its recorded CC50.
Reply numerically in µM, unit not repeated.

Request: Could you share what CC50 was measured for C/C=C1\NC(=O)[C@H](Cc2ccccc2)N(C)C(=O)[C@@H](C(C)C)NC(=O)[C@@H]([C@H](C)CC)NC(=O)[C@H](NC(=O)[C@H](NC(=O)[C@H](CCCN)NC(=O)[C@H]2CCCN2C(=O)[C@H](NC(=O)[C@@H](NC(=O)[C@@H](NC(=O)[C@H](NC(=O)CC[C@@H](C)CC)C(C)C)[C@@H](C)O)C(C)C)C(C)C)[C@H](C)CC)[C@H](C)OC(=O)[C@H](C(C)C)NC1=O , tested on DU-145?
Response: 1.03

Request: # repeat for C/C=C1\NC(=O)[C@H](Cc2ccccc2)NC(=O)[C@@H](C(C)C)NC(=O)[C@@H]([C@H](C)CC)NC(=O)[C@H](NC(=O)[C@H](NC(=O)[C@H](CCCN)NC(=O)[C@H]2CCCN2C(=O)[C@H](NC(=O)[C@@H](NC(=O)[C@@H](NC(=O)[C@H](NC(=O)CC[C@@H](C)[C@H]2CC[C@H]3[C@@H]4CC[C@@H]5C[C@H](O)CC[C@]5(C)[C@H]4CC[C@]23C)C(C)C)[C@@H](C)O)C(C)C)C(C)C)[C@H](C)CC)[C@H](C)OC(=O)[C@H](C(C)C)NC1=O
Response: 3.31

###

System: PANC-1
protocol: Cytotoxicity against human PANC1 cells after 48 hrs by SRB assay
Format: functional
reported.conditions: PANC-1, 48 h, read-out: LC50 (the source's name)
quantity.name: CC50 (µM)
Reply numerically in µM, unit not repeated.

Request: So what's the measured CC50 for this one? C/C=C1\NC(=O)[C@H](Cc2ccccc2)N(C)C(=O)[C@@H](C(C)C)NC(=O)[C@@H]([C@H](C)CC)NC(=O)[C@H](NC(=O)[C@H](NC(=O)[C@H](CCCN)NC(=O)[C@H]2CCCN2C(=O)[C@H](NC(=O)[C@@H](NC(=O)[C@@H](NC(=O)[C@H](NC(=O)CC[C@@H](C)CC)C(C)C)[C@@H](C)O)C(C)C)C(C)C)[C@H](C)CC)[C@H](C)OC(=O)[C@H](C(C)C)NC1=O
Response: 2

Request: # repeat for CC[C@@H](C)[C@@H](NC(=O)[C@H](CCCN)NC(=O)[C@H]1CCCN1C(=O)[C@H](NC(=O)[C@@H](NC(=O)[C@@H](NC(=O)[C@H](NC(=O)CCCC(C)C)C(C)C)[C@@H](C)O)C(C)C)C(C)C)C(=O)N[C@H]1C(=O)N[C@H]([C@H](C)CC)C(=O)N[C@H](C(C)C)C(=O)N[C@@H](Cc2ccccc2)C(=O)N[C@H](CC)C(=O)N[C@@H](C(C)C)C(=O)O[C@H]1C
Response: 2.83

###

System: DU-145
protocol: Cytotoxicity against human DU145 cells after 48 hrs by SRB assay
Assay type: functional, cell-based
reported.conditions: Homo sapiens, DU-145, 48 h; read-out: GI50
quantity.name: GI50 (nM)
Reply numerically in nM, unit not repeated.

Request: So what's the measured GI50 for this one? C=C1NC(=O)[C@H](Cc2ccccc2)NC(=O)[C@@H](C(C)C)NC(=O)[C@@H]([C@H](C)CC)NC(=O)[C@H](NC(=O)[C@H](NC(=O)[C@H](CCCN)NC(=O)[C@H]2CCCN2C(=O)[C@H](NC(=O)[C@@H](NC(=O)[C@@H](NC(=O)[C@H](NC(=O)CCCC(C)C)C(C)C)[C@@H](C)O)C(C)C)C(C)C)[C@H](C)CC)[C@H](C)OC(=O)[C@H](C(C)C)NC1=O
Response: 1110

Request: # repeat for C/C=C1\NC(=O)[C@H](Cc2ccccc2)NC(=O)[C@@H](C(C)C)NC(=O)[C@@H]([C@H](C)CC)NC(=O)[C@H](NC(=O)[C@H](NC(=O)[C@H](CCCN)NC(=O)[C@H]2CCCN2C(=O)[C@H](NC(=O)[C@@H](NC(=O)[C@@H](NC(=O)[C@H](NC(=O)CC[C@@H](C)CC)C(C)C)[C@@H](C)OC(=O)C(F)(F)F)C(C)C)C(C)C)[C@H](C)CC)[C@H](C)OC(=O)[C@H](C(C)C)NC1=O
Response: 617

Request: # repeat for C/C=C1\NC(=O)[C@H](Cc2cccs2)NC(=O)[C@@H](C(C)C)NC(=O)[C@@H]([C@H](C)CC)NC(=O)[C@H](NC(=O)[C@H](NC(=O)[C@H](CCCN)NC(=O)[C@H]2CCCN2C(=O)[C@H](NC(=O)[C@@H](NC(=O)[C@@H](NC(=O)[C@H](NC(=O)CC[C@@H](C)CC)C(C)C)[C@@H](C)O)C(C)C)C(C)C)[C@H](C)CC)[C@H](C)OC(=O)[C@H](C(C)C)NC1=O
Response: 1380

###

System: PANC-1
protocol: Cytotoxicity against human PANC1 cells after 48 hrs by SRB assay
Type: functional
reported.conditions: PANC-1, 48 h, read-out: LC50 (the source's name)
quantity.name: CC50 (nM)
Reply numerically in nM, unit not repeated.

Request: So what's the measured CC50 for this one? CC[C@@H](C)[C@@H](NC(=O)[C@H](CCCN)NC(=O)[C@H]1CCCN1C(=O)[C@H](NC(=O)[C@@H](NC(=O)[C@@H](NC(=O)[C@H](NC(=O)CCCC(C)C)C(C)C)[C@@H](C)O)C(C)C)C(C)C)C(=O)N[C@H]1C(=O)N[C@H]([C@H](C)CC)C(=O)N[C@H](C(C)C)C(=O)N[C@@H](Cc2ccccc2)C(=O)N/C(=C\c2ccccc2)C(=O)N[C@@H](C(C)C)C(=O)O[C@H]1C
Response: 2140

Request: # repeat for C/C=C1\NC(=O)[C@H](Cc2ccccc2)NC(=O)[C@@H](C(C)C)NC(=O)[C@@H]([C@H](C)CC)NC(=O)[C@H](NC(=O)[C@H](NC(=O)[C@H](CCCN)NC(=O)[C@H]2CCCN2C(=O)[C@H](NC(=O)[C@@H](NC(=O)[C@@H](NC(=O)[C@H](NC(=O)CCCCCCC)C(C)C)[C@@H](C)O)C(C)C)C(C)C)[C@H](C)CC)[C@H](C)OC(=O)[C@H](C(C)C)NC1=O
Response: 2290

Request: # repeat for C/C=C1\NC(=O)[C@H](Cc2ccccc2)NC(=O)[C@@H](C(C)C)NC(=O)[C@@H]([C@H](C)CC)NC(=O)[C@H](NC(=O)[C@H](NC(=O)[C@H](CCCNC(=O)C(F)(F)F)NC(=O)[C@H]2CCCN2C(=O)[C@H](NC(=O)[C@@H](NC(=O)[C@@H](NC(=O)[C@H](NC(=O)CC[C@@H](C)CC)C(C)C)[C@@H](C)OC(=O)C(F)(F)F)C(C)C)C(C)C)[C@H](C)CC)[C@H](C)OC(=O)[C@H](C(C)C)NC1=O
Response: 1570

Request: # repeat for C/C=C1\NC(=O)[C@H](Cc2ccccc2)NC(=O)[C@@H](C(C)C)NC(=O)[C@@H]([C@H](C)CC)NC(=O)[C@H](NC(=O)[C@H](NC(=O)[C@H](CCCN)NC(=O)[C@H]2CCCN2C(=O)[C@H](NC(=O)[C@@H](NC(=O)CNC(=O)[C@H](NC(=O)CCCC(C)C)C(C)C)C(C)C)C(C)C)[C@H](C)CC)[C@H](C)OC(=O)[C@H](C(C)C)NC1=O
Response: 1990

Request: # repeat for C/C=C1\NC(=O)[C@H](Cc2ccccc2)NC(=O)[C@@H](C(C)C)NC(=O)[C@@H]([C@H](C)CC)NC(=O)[C@H](NC(=O)[C@H](NC(=O)[C@H](CCCN)NC(=O)[C@H]2CCCN2C(=O)[C@H](NC(=O)[C@@H](NC(=O)[C@@H](NC(=O)[C@H]2CCCN2C(=O)CCCC(C)C)[C@@H](C)O)C(C)C)C(C)C)[C@H](C)CC)[C@H](C)OC(=O)[C@H](C(C)C)NC1=O
Response: 2820
